experiment: Cytotoxicity (XTT) in Calu-3 cells; conditions: human
observation type: CC50 at 3 days

What value of measured CC50 at 3 days is listed for CCC(CC)COC(=O)[C@H](C)N[P@](=O)(OC[C@H]1O[C@@](C#N)(c2ccc3c(N)ncnn23)[C@H](O)[C@@H]1O)Oc1ccccc1 [Remdesivir, reference compound] ?
> 50 µM

====

Would you kindly list Microsomal stability Rem. at 45 min for each of these compounds?
assay: Microsomal stability, mouse; format: in vitro ADME; conditions: 0.5 mg/ml mouse microsomes, 5uM, triplicates
Give just the number in %; leave the unit off.

What value of measured Microsomal stability Rem. at 45 min is listed for CCN(C[C@H]1O[C@@H](n2cc(C#Cc3cccnc3)c3c(N)ncnc32)[C@H](O)[C@@H]1O)S(=O)(=O)c1ccc(OC)c(C#N)c1 [Compound 12l] ?
37.4

What value of measured Microsomal stability Rem. at 45 min is listed for CCN(C[C@H]1O[C@@H](n2cc(C#Cc3cnc4ccccc4c3)c3c(N)ncnc32)[C@H](O)[C@@H]1O)S(=O)(=O)c1ccc(OC)c(C#N)c1 [Compound 12e] ?
79.3

What value of measured Microsomal stability Rem. at 45 min is listed for CCN(C[C@H]1O[C@@H](n2cc(C#Cc3nc4ccccc4[nH]3)c3c(N)ncnc32)[C@H](O)[C@@H]1O)S(=O)(=O)c1ccc(OC)c(C#N)c1 [Compound 12a] ?
48.7

What value of measured Microsomal stability Rem. at 45 min is listed for CCN(C[C@H]1O[C@@H](n2cc(C#Cc3ccc(C(N)=O)cc3)c3c(N)ncnc32)[C@H](O)[C@@H]1O)S(=O)(=O)c1ccc(OC)c(C#N)c1 [Compound 12o] ?
65.9

What value of measured Microsomal stability Rem. at 45 min is listed for CCN(C[C@H]1O[C@@H](n2cc(C#Cc3ccc(N)nc3)c3c(N)ncnc32)[C@H](O)[C@@H]1O)S(=O)(=O)c1ccc(OC)c(C#N)c1 [Compound 12h] ?
43.0

====

test: Caco-2 permeability assay; format: in vitro ADME; details: human; Caco-2, 5 µM, 3 h
observation type: recovery at 3 h, 5 µM (%)
Give just the number in %; leave the unit off.

What value of measured recovery at 3 h, 5 µM is listed for COc1ccc(S(=O)(=O)N(C)C[C@H]2O[C@@H](n3cc(C#Cc4cccnc4)c4c(N)ncnc43)[C@H](O)[C@@H]2O)cc1C#N [Compound 12s] ?
3

What value of measured recovery at 3 h, 5 µM is listed for COc1ccc(S(=O)(=O)N(C)C[C@H]2O[C@@H](n3cc(C#Cc4cnc5ccccc5c4)c4c(N)ncnc43)[C@H](O)[C@@H]2O)cc1C#N [Compound 12q] ?
4

What value of measured recovery at 3 h, 5 µM is listed for COc1ccc(S(=O)(=O)N(C)C[C@H]2O[C@@H](n3cc(C#Cc4ccc(C(N)=O)cc4)c4c(N)ncnc43)[C@H](O)[C@@H]2O)cc1C#N [Compound 12r] ?
1

What value of measured recovery at 3 h, 5 µM is listed for CCN(C[C@H]1O[C@@H](n2cc(C#Cc3cccnc3)c3c(N)ncnc32)[C@H](O)[C@@H]1O)S(=O)(=O)c1ccc(OC)c(C#N)c1 [Compound 12l] ?
17

====

Would you kindly list Kp at 1 h, 50 µM for each of these molecules?
experiment: Steady-state intracellular uptake in Calu-3 cells; assay type: in vitro ADME; details: human, Calu-3 cells; Calu-3, 60 min incubation, 50 μM at t = 0; read-out: Kp (intracellular accumulation ratio IC/EC) (converted)
The response must contain the number and no unit.

What value of measured Kp at 1 h, 50 µM is listed for CCN(C[C@H]1O[C@@H](n2cc(C#Cc3cnc4ccccc4c3)c3c(N)ncnc32)[C@H](O)[C@@H]1O)S(=O)(=O)c1ccc(OC)c(C#N)c1 [Compound 12e] ?
1770

What value of measured Kp at 1 h, 50 µM is listed for COc1ccc(S(=O)(=O)N(C)C[C@H]2O[C@@H](n3cc(C#Cc4ccc(C(N)=O)cc4)c4c(N)ncnc43)[C@H](O)[C@@H]2O)cc1C#N [Compound 12r] ?
1250

What value of measured Kp at 1 h, 50 µM is listed for COc1ccc(S(=O)(=O)N(C)C[C@H]2O[C@@H](n3cc(C#Cc4cccnc4)c4c(N)ncnc43)[C@H](O)[C@@H]2O)cc1C#N [Compound 12s] ?
106

====

Would you kindly list IC50 for each of these compounds?
molecular target: SARS-CoV-2 nsp14 7-N MTase (Severe acute respiratory syndrome coronavirus 2)
Give just the number in nM; leave the unit off.

What value of measured IC50 is listed for CCN(C[C@H]1O[C@@H](n2cc(C#Cc3cnc(O)nc3)c3c(N)ncnc32)[C@H](O)[C@@H]1O)S(=O)(=O)c1ccc(OC)c(C#N)c1 [Compound 12g] ?
75

What value of measured IC50 is listed for CCN(C[C@H]1O[C@@H](n2cc(C#Cc3ccc(O)nc3)c3c(N)ncnc32)[C@H](O)[C@@H]1O)S(=O)(=O)c1ccc(OC)c(C#N)c1 [Compound 12f] ?
65

What value of measured IC50 is listed for CCN(C[C@H]1O[C@@H](n2cc(C#Cc3ccc(N)nc3)c3c(N)ncnc32)[C@H](O)[C@@H]1O)S(=O)(=O)c1ccc(OC)c(C#N)c1 [Compound 12h] ?
46

What value of measured IC50 is listed for `COc1ccc(S(=O)(=O)N(C[C@H]2O[C@@H](n3cnc4c(N)ncnc43)[C@H](O)[C@@H]2O)C2CCCC2)cc1C#N` ?
2380

What value of measured IC50 is listed for CCN(C[C@H]1O[C@@H](n2cc(C#Cc3cnc(N)nc3)c3c(N)ncnc32)[C@H](O)[C@@H]1O)S(=O)(=O)c1ccc(OC)c(C#N)c1 [Compound 12i] ?
38

What value of measured IC50 is listed for CCN(C[C@H]1O[C@@H](n2cc(C#Cc3cncnc3)c3c(N)ncnc32)[C@H](O)[C@@H]1O)S(=O)(=O)c1ccc(OC)c(C#N)c1 [Compound 12m] ?
51

What value of measured IC50 is listed for COc1ccc(S(=O)(=O)N(C)C[C@H]2O[C@@H](n3cc(C#Cc4cnc5ccccc5c4)c4c(N)ncnc43)[C@H](O)[C@@H]2O)cc1C#N [Compound 12q] ?
19

What value of measured IC50 is listed for CCN(C[C@H]1O[C@@H](n2cc(C#Cc3cccnc3)c3c(N)ncnc32)[C@H](O)[C@@H]1O)S(=O)(=O)c1ccc(OC)c(C#N)c1 [Compound 12l] ?
38

What value of measured IC50 is listed for `COc1ccc(S(=O)(=O)N(C[C@H]2O[C@@H](n3cnc4c(N)ncnc43)[C@H](O)[C@@H]2O)C(C)C)cc1C#N` ?
624

What value of measured IC50 is listed for CCN(C[C@H]1O[C@@H](n2cc(C#Cc3ccc(C(N)=O)cc3)c3c(N)ncnc32)[C@H](O)[C@@H]1O)S(=O)(=O)c1ccc(OC)c(C#N)c1 [Compound 12o] ?
49

What value of measured IC50 is listed for CCN(C[C@H]1O[C@@H](n2cc(C#Cc3cccc4ccccc34)c3c(N)ncnc32)[C@H](O)[C@@H]1O)S(=O)(=O)c1ccc(OC)c(C#N)c1 [Compound 12d] ?
261

What value of measured IC50 is listed for CCN(C[C@H]1O[C@@H](n2cc(C#Cc3c[nH]c(=O)nc3N)c3c(N)ncnc32)[C@H](O)[C@@H]1O)S(=O)(=O)c1ccc(OC)c(C#N)c1 [Compound 12k] ?
88

What value of measured IC50 is listed for `COc1ccc(S(=O)(=O)N(C)C[C@H]2O[C@@H](n3cnc4c(N)ncnc43)[C@H](O)[C@@H]2O)cc1C#N` ?
128

What value of measured IC50 is listed for CCN(C[C@H]1O[C@@H](n2cc(C#Cc3ccc(C(=O)O)cc3)c3c(N)ncnc32)[C@H](O)[C@@H]1O)S(=O)(=O)c1ccc(OC)c(C#N)c1 [Compound 12p] ?
84

What value of measured IC50 is listed for CCN(C[C@H]1O[C@@H](n2cnc3c(N)ncnc32)[C@H](O)[C@@H]1O)S(=O)(=O)c1ccc(OC)c(C#N)c1 [Compound 3a, reference compound] ?
195

What value of measured IC50 is listed for COc1ccc(S(=O)(=O)N(C)C[C@H]2O[C@@H](n3cc(C#Cc4cccnc4)c4c(N)ncnc43)[C@H](O)[C@@H]2O)cc1C#N [Compound 12s] ?
21

What value of measured IC50 is listed for CCN(C[C@H]1O[C@@H](n2cc(C#Cc3ccncc3)c3c(N)ncnc32)[C@H](O)[C@@H]1O)S(=O)(=O)c1ccc(OC)c(C#N)c1 [Compound 12n] ?
41

What value of measured IC50 is listed for CCN(C[C@H]1O[C@@H](n2cc(C#Cc3ccccc3)c3c(N)ncnc32)[C@H](O)[C@@H]1O)S(=O)(=O)c1ccc(OC)c(C#N)c1 [Compound 12c] ?
62

What value of measured IC50 is listed for CCN(C[C@H]1O[C@@H](n2cc(C#Cc3ncc[nH]3)c3c(N)ncnc32)[C@H](O)[C@@H]1O)S(=O)(=O)c1ccc(OC)c(C#N)c1 [Compound 12b] ?
34

What value of measured IC50 is listed for CCN(C[C@H]1O[C@@H](n2cc(C#Cc3nc4ccccc4[nH]3)c3c(N)ncnc32)[C@H](O)[C@@H]1O)S(=O)(=O)c1ccc(OC)c(C#N)c1 [Compound 12a] ?
37

What value of measured IC50 is listed for COc1ccc(S(=O)(=O)N(C)C[C@H]2O[C@@H](n3cc(C#Cc4ccc(C(N)=O)cc4)c4c(N)ncnc43)[C@H](O)[C@@H]2O)cc1C#N [Compound 12r] ?
23
